test-system: Aurora kinase A (Homo sapiens)
protocol: Inhibition of GST-tagged human recombinant Aurora A kinase domain (123 to 401 residues) expressed in Sf9 cells after 120 mins by kinase-glo luminescence assay
endpoint: pIC50
Interpret pIC50 as the negative base-10 log of the concentration measured in mol/L.

The compound listed as "CC(C)Cc1cccc(NC(=O)Nc2ccc(CCNc3ncnc4oc(-c5ccccc5)c(Cl)c34)cc2)c1" has a reported pIC50 of 6.61

The compound listed as "Cc1ccccc1NC(=O)Nc1ccc(CCNc2ncnc3oc(-c4ccccc4)c(Cl)c23)cc1" has a reported pIC50 of 7.08

The compound listed as "Cc1ccc(NC(=O)Nc2ccc(CCNc3ncnc4oc(-c5ccccc5)c(Cl)c34)cc2)cc1" has a reported pIC50 of 7.26

The compound listed as "O=C(Nc1ccccc1)Nc1ccc(CCNc2ncnc3oc(-c4ccccc4)c(Cl)c23)cc1" has a reported pIC50 of 7.28

The compound listed as "O=C(Nc1ccc(CCNc2ncnc3oc(-c4ccccc4)c(Cl)c23)cc1)Nc1ccc(CN2CCCCC2)cc1" has a reported pIC50 of 6.35

The compound listed as "O=C(Nc1ccc(CCNc2ncnc3oc(-c4ccccc4)c(Cl)c23)cc1)Nc1cccc(CN2CCC(O)CC2)c1" has a reported pIC50 of 7.17

The compound listed as "CN(C)Cc1ccc(NC(=O)Nc2ccc(CCNc3ncnc4oc(-c5ccccc5)c(Cl)c34)cc2)cc1" has a reported pIC50 of 7.01

====

test-system: Aurora kinase A (Homo sapiens)
Sequence (O14965 whole entry): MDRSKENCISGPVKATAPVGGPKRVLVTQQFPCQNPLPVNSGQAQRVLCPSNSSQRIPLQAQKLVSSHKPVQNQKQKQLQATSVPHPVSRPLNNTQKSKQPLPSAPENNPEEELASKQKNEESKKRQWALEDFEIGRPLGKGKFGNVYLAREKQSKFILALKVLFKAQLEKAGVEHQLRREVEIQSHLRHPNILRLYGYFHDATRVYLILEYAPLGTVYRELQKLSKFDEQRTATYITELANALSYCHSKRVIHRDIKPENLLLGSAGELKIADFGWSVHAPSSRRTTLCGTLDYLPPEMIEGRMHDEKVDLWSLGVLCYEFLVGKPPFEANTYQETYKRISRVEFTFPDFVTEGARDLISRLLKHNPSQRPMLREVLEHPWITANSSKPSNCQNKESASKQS
protocol: Inhibition of GST-tagged human recombinant Aurora A kinase domain (123 to 401 residues) expressed in Sf9 cells after 120 mins by kinase-glo luminescence assay
endpoint: IC50 (nM)
// note: answer is a bare numeric in nM

The compound listed as "CC(C)c1ccccc1NC(=O)Nc1ccc(CCNc2ncnc3oc(-c4ccccc4)c(Cl)c23)cc1" has a reported IC50 of 525

The compound listed as "CCc1ccc(NC(=O)Nc2ccc(CCNc3ncnc4oc(-c5ccccc5)c(Cl)c34)cc2)cc1" has a reported IC50 of 139

The compound listed as "CN(C)Cc1cccc(NC(=O)Nc2ccc(CCNc3ncnc4oc(-c5ccccc5)c(Cl)c34)cc2)c1" has a reported IC50 of 20

====

test-system: Aurora kinase B (Homo sapiens)
Sequence (Q96GD4 whole entry, the tested form may be a part): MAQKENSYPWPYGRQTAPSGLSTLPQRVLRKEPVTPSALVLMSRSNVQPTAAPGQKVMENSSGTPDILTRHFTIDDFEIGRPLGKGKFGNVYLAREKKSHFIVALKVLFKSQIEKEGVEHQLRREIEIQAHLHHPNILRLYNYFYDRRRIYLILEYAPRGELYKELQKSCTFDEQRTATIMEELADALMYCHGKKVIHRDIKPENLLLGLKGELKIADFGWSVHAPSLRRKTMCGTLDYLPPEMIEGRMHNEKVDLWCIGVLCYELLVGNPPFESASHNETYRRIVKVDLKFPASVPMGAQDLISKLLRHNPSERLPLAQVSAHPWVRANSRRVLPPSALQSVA
protocol: Inhibition of human recombinant full length Aurora-B (1 to 344 residues) expressed in Sf9 cells after 90 mins by kinase-glo luminescence assay
Record form. Attribute: IC50. Fill in for each entry.
// note: answer is a bare numeric in nM

The molecule listed as "CCN(CC)Cc1ccccc1NC(=O)Nc1ccc(CCNc2ncnc3oc(-c4ccccc4)c(Cl)c23)cc1" has a reported IC50 of 526

The molecule listed as "CC(C)c1cccc(NC(=O)Nc2ccc(CCNc3ncnc4oc(-c5ccccc5)c(Cl)c34)cc2)c1" has a reported IC50 of 657

The molecule listed as "O=C(Nc1ccc(CCNc2ncnc3oc(-c4ccccc4)c(Cl)c23)cc1)Nc1ccc(CN2CCC(O)CC2)cc1" has a reported IC50 of 353

The molecule listed as "Cc1ccc(NC(=O)Nc2ccc(CCNc3ncnc4oc(-c5ccccc5)c(Cl)c34)cc2)cc1" has a reported IC50 of 73.3

The molecule listed as "O=C(Nc1ccc(CCNc2ncnc3oc(-c4ccccc4)c(Cl)c23)cc1)Nc1ccccc1CN1CCCCC1" has a reported IC50 of 122

The molecule listed as "CCN(C)Cc1cccc(NC(=O)Nc2ccc(CCNc3ncnc4oc(-c5ccccc5)c(Cl)c34)cc2)c1" has a reported IC50 of 140

The molecule listed as "CN(C)Cc1ccc(NC(=O)Nc2ccc(CCNc3ncnc4oc(-c5ccccc5)c(Cl)c34)cc2)cc1" has a reported IC50 of 455

The molecule listed as "O=C(Nc1ccc(CCNc2ncnc3oc(-c4ccccc4)c(Cl)c23)cc1)Nc1cccc(CN2CCCCC2)c1" has a reported IC50 of 102

The molecule listed as "Cc1ccccc1NC(=O)Nc1ccc(CCNc2ncnc3oc(-c4ccccc4)c(Cl)c23)cc1" has a reported IC50 of 60.2
